target: human dopamine D2L receptors (long isoform) (Homo sapiens, UniProt P14416); assay: Dopamine D2L receptor binding, displacement of [125I] iodospiperone; settings: membranes of HEK-293 cells stably expressing human D2L; 0.01 nM [125I] iodospiperone; 25° C., 60 minutes; read-out: Ki(D2)*
Sequence (P14416 whole entry, canonical isoform): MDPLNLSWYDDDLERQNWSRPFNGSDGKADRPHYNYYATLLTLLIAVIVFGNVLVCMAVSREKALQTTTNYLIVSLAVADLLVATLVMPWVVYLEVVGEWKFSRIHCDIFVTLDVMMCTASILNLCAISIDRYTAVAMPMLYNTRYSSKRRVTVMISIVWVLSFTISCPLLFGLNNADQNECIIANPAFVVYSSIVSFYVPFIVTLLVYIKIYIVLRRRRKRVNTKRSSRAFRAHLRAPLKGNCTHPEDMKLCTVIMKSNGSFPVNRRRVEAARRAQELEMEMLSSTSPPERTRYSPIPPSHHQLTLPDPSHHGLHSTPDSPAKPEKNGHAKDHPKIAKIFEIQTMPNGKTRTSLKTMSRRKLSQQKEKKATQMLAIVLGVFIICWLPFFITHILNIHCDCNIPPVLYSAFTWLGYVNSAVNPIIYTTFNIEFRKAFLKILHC
Structures can show the parent of a compound that is named as a salt.
Binary call on Ki with cut-off 20 nM: strictly below means yes, and equality or higher means no.

Illustrative cases are given below, each with its answer.
COMPOUND: CCCc1ccc(S(=O)(=O)Nc2ccc([C@@H]3CCN(CCC)C3)cc2)cc1.Cl [Example 30, hydrochloride]
CLASS_ASSIGNMENT: yes
//
COMPOUND: C[C@H](CF)c1ccc(S(=O)(=O)Nc2ccc([C@@H]3CCNC3)cc2)cc1
CLASS_ASSIGNMENT: no
//
COMPOUND: CCCN1CC[C@@H](c2ccc(NS(=O)(=O)c3ccc(N4CCCC4)cc3)cc2)C1
CLASS_ASSIGNMENT: yes
//
COMPOUND: CCCN1CC(c2ccc(NS(=O)(=O)c3ccc(C(C)C(F)F)cc3)cc2)C1 (centres unmarked)
CLASS_ASSIGNMENT: no
//
COMPOUND: CN1CC[C@@H](c2ccc(NS(=O)(=O)c3ccc(OC(F)(F)F)cc3)cc2)C1
CLASS_ASSIGNMENT: no
//
COMPOUND: CCCN1CC[C@@H](c2ccc(NS(=O)(=O)c3ccc(C(C)CC)cc3)cc2)C1.Cl (some centres unmarked) [Example 33, hydrochloride]
CLASS_ASSIGNMENT: yes
//
COMPOUND: CCCN1CC[C@@H](c2ccc(NS(=O)(=O)c3ccc(CCC(F)(F)F)cc3)cc2)C1
CLASS_ASSIGNMENT: no
//
COMPOUND: CCCN1CC[C@@H](c2ccc(NS(=O)(=O)c3ccc(C4CCCC4)cc3)cc2)C1 [Example 37, hydrochloride]
CLASS_ASSIGNMENT: yes

Is Ki of C=CCN1CC[C@@H](c2ccc(NS(=O)(=O)c3ccc(CCCF)cc3)cc2)C1 strictly below 20 nM?
no

Identify whether the compound O=S(=O)(Nc1ccc([C@@H]2CCN(CCCF)C2)cc1)c1ccc(OC(F)(F)F)cc1 records Ki below 20 nM.
no
